The measured values listed here are drawn from patent US10913710B2.

The entries below are paired with their reported Kd.
molecular target: PDEδ (Homo sapiens (Human)); assay: Fluorescence polarization competition binding assay: displacement titration of labeled Atorvastatin probe for KD; settings: fluorescence polarization assay; activity classes; read-out: KD

In the examples that follow, each entry is paired with its recorded Kd.
[[record]]
compound = "O=S(=O)(c1ccc(S(=O)(=O)N(Cc2cccc(Br)c2)C2CCCC2)cc1)N(Cc1ccccc1)CC1CCNCC1"
value_observed = "30 to 100 nM"

[[record]]
compound = "CN(Cc1ccccc1)S(=O)(=O)c1ccc(S(=O)(=O)N(Cc2ccc(Cl)cc2)Cc2ccco2)cc1"
value_observed = "> 1000 nM"


From here, focus on the item given below.
Ask: Retrieve Kd measured for "CN(Cc1ccccc1)S(=O)(=O)c1ccc(S(=O)(=O)N(Cc2ccc(F)cc2)C2CCCC2)cc1" and print it.
Result: 30 to 100 nM

====

target: PDEδ (Homo sapiens (Human), UniProt O43924); assay: Fluorescence polarization competition binding assay: displacement titration of labeled Atorvastatin probe for KD; conditions: fluorescence polarization assay; activity classes; read-out: KD
The entries below are paired with their reported Kd.

[[record]]
compound = "O=S(=O)(NCC1CCOCC1)c1ccc(S(=O)(=O)N(Cc2ccc(Cl)cc2)C2CCCC2)cc1"
metric = "Kd"
value_observed = "30 to 100 nM"

[[record]]
compound = "CC1CCCN(S(=O)(=O)c2ccc(S(=O)(=O)N(Cc3ccc4c(c3)OCO4)Cc3ccccc3F)cc2)C1 (stereo not shown)"
metric = "Kd"
value_observed = "100 to 1000 nM"

[[record]]
compound = "CCN(Cc1ccccc1)S(=O)(=O)c1ccc(S(=O)(=O)N(Cc2ccc(F)cc2)Cc2ccco2)cc1"
metric = "Kd"
value_observed = "30 to 100 nM"


From here, focus on the item given below.
Ask: Retrieve Kd measured for "CCN(CC)S(=O)(=O)c1ccc(S(=O)(=O)N(Cc2ccccn2)Cc2ccco2)cc1" and print it.
Result: 100 to 1000 nM

====

molecular target: UniProt:O43924; test: Fluorescence polarization competition binding assay: displacement titration of labeled Atorvastatin probe for KD; conditions: fluorescence polarization assay; activity classes; read-out: KD
Metric: Kd

In the examples that follow, each entry is paired with its recorded Kd.
[[record]]
compound = "O=S(=O)(c1ccc(S(=O)(=O)N(Cc2cc(Br)cc(C(F)(F)F)c2)C2CCCC2)cc1)N(Cc1ccccc1)CC1CCNCC1"
value_observed = "0.1 to 1 µM"

[[record]]
compound = "COc1cc(CN(C2CCCCC2)S(=O)(=O)c2ccc(S(=O)(=O)N(C)C3CCCCC3)cc2)cc(OC)c1OC"
value_observed = "0.1 to 1 µM"

[[record]]
compound = "COc1cccc(CN(CC2CCCO2)S(=O)(=O)c2ccc(S(=O)(=O)N3CCCC3)cc2)c1 (stereo not shown)"
value_observed = "0.1 to 1 µM"

[[record]]
compound = "COc1ccc(CN(Cc2ccc3c(c2)OCO3)S(=O)(=O)c2ccc(S(=O)(=O)N3CCCC(C)C3)cc2)cc1OC (stereo not shown)"
value_observed = "> 1 µM"

[[record]]
compound = "CN(Cc1ccccc1)S(=O)(=O)c1ccc(S(=O)(=O)N(Cc2ccccc2)Cc2ccccc2F)cc1"
value_observed = "> 1 µM"


Ask: Retrieve Kd measured for "CC(C)(C)OC(=O)N1CCC(CN(Cc2ccccc2)S(=O)(=O)c2ccc(S(=O)(=O)NC3CCCC3)cc2)CC1" and print it.
Result: > 1 µM

Ask: Retrieve Kd measured for "CC(C)c1ccc(CN(Cc2ccco2)S(=O)(=O)c2ccc(S(=O)(=O)N(C)Cc3ccccc3)cc2)cc1" and print it.
Result: 0.1 to 1 µM

====

The entries below are paired with their reported Kd.
target: PDEδ (Homo sapiens (Human), UniProt O43924); experiment: Fluorescence polarization competition binding assay: displacement titration of labeled Atorvastatin probe for KD; conditions: fluorescence polarization assay; activity classes; read-out: KD

In the examples that follow, each entry is paired with its recorded Kd.
[[record]]
compound = "CC(C)(C)[Si](C)(C)OCCN(CC1CCCCC1)S(=O)(=O)c1ccc(S(=O)(=O)N(Cc2ccc(Cl)cc2)C2CCCC2)cc1 [Compound 28]"
metric = "Kd"
value_observed = "100 to 1000 nM"

[[record]]
compound = "CNc1nccc(CN(CC2CCCCC2)S(=O)(=O)c2ccc(S(=O)(=O)N(Cc3ccc(Cl)cc3)C3CCCC3)cc2)n1 [Compound 20]"
metric = "Kd"
value_observed = "30 to 100 nM"

[[record]]
compound = "COc1cccc(CN(Cc2ccco2)S(=O)(=O)c2ccc(S(=O)(=O)NCC3CCCO3)cc2)c1 (centres unmarked) [Compound 84]"
metric = "Kd"
value_observed = "1 to 30 nM"

[[record]]
compound = "COc1ccc(CN(Cc2ccccc2Cl)S(=O)(=O)c2ccc(S(=O)(=O)N3CCCCC3)cc2)cc1 [Compound 81]"
metric = "Kd"
value_observed = "30 to 100 nM"

[[record]]
compound = "O=S(=O)(NCC1CCCO1)c1ccc(S(=O)(=O)N(Cc2ccc(Cl)cc2)Cc2ccco2)cc1 (centres unmarked) [Compound 99]"
metric = "Kd"
value_observed = "100 to 1000 nM"

[[record]]
compound = "CCOc1ccc(CN(C2CC2)S(=O)(=O)c2ccc(S(=O)(=O)N(C)C)cc2)cc1 [Compound 69]"
metric = "Kd"
value_observed = "100 to 1000 nM"

[[record]]
compound = "O=S(=O)(c1ccc(S(=O)(=O)N(Cc2ccc(Cl)cc2)C2CCCC2)cc1)N(CC1CCCCC1)c1cc(C(F)(F)F)ccc1Br [Compound 37]"
metric = "Kd"
value_observed = "30 to 100 nM"

[[record]]
compound = "O=S(=O)(NCC1CCCO1)c1ccc(S(=O)(=O)N(Cc2ccc(F)cc2)C2CCCCC2)cc1 (centres unmarked) [Compound 88]"
metric = "Kd"
value_observed = "100 to 1000 nM"


Ask: Retrieve Kd measured for CNc1nccc(CN([C@H]2CC[C@H](N)CC2)S(=O)(=O)c2ccc(S(=O)(=O)N(Cc3ccc(Cl)cc3)C3CCCC3)cc2)n1 [Compound 19] and print it.
Result: 1 to 30 nM

Ask: Retrieve Kd measured for CCN(CC)S(=O)(=O)c1ccc(S(=O)(=O)N(Cc2ccc(OC)c(OC)c2)C2CCCCC2C)cc1 (centres unmarked) [Compound 68] and print it.
Result: 1 to 30 nM

Ask: Retrieve Kd measured for O=S(=O)(c1ccc(S(=O)(=O)N(Cc2ccc(Cl)cc2)C2CCCC2)cc1)N(CCN1CCNCC1)Cc1ccccc1 [Compound 10] and print it.
Result: 1 to 30 nM

Ask: Retrieve Kd measured for O=S(=O)(NCc1ccccc1)c1ccc(S(=O)(=O)N(Cc2ccc(Cl)cc2)C2CCCC2)cc1 [Compound 100] and print it.
Result: 30 to 100 nM

Ask: Retrieve Kd measured for COc1cccc(CN(C2CC2)S(=O)(=O)c2ccc(S(=O)(=O)NCc3ccccc3)cc2)c1OC [Compound 51] and print it.
Result: 100 to 1000 nM

Ask: Retrieve Kd measured for CC(C)(C)[Si](C)(C)OCCCCN(CC1CCCCC1)S(=O)(=O)c1ccc(S(=O)(=O)N(Cc2ccc(Cl)cc2)C2CCCC2)cc1 [Compound 30] and print it.
Result: 100 to 1000 nM

====

biological target: PDEδ (Homo sapiens (Human), UniProt O43924); assay: Fluorescence polarization competition binding assay: displacement titration of labeled Atorvastatin probe for KD; conditions: fluorescence polarization assay; activity classes; read-out: KD
The entries below are paired with their reported Kd.

In the examples that follow, each entry is paired with its recorded Kd.
[[record]]
compound = "O=S(=O)(c1ccc(S(=O)(=O)N(Cc2ccccc2)Cc2ccc(F)cc2)cc1)N1CCCC1"
value_observed = "> 1000 nM"

[[record]]
compound = "COc1cc(CN(C2CCCCC2C)S(=O)(=O)c2ccc(S(=O)(=O)NC3CCCC3)cc2)cc(OC)c1OC (stereo not shown)"
value_observed = "100 to 1000 nM"

[[record]]
compound = "O=S(=O)(c1ccc(S(=O)(=O)N(Cc2ccc(Cl)cc2)C2CCCC2)cc1)N(Cc1ccccc1)CC1CCCNC1 (stereo not shown)"
value_observed = "1 to 30 nM"


Ask: Retrieve Kd measured for "CN(Cc1ccccc1)S(=O)(=O)c1ccc(S(=O)(=O)N(Cc2ccc(F)cc2)C2CCCCC2)cc1" and print it.
Result: 1 to 30 nM

Ask: Retrieve Kd measured for "O=S(=O)(c1ccc(S(=O)(=O)N(Cc2ccc(Cl)cc2)C2CCCC2)cc1)N(Cc1ccccc1)CC1CCNCC1" and print it.
Result: 1 to 30 nM

Ask: Retrieve Kd measured for "Cc1ccsc1N(Cc1ccccn1)S(=O)(=O)c1ccc(S(=O)(=O)N(Cc2ccccn2)c2sccc2C)cc1" and print it.
Result: > 1000 nM

Ask: Retrieve Kd measured for O=CC1Cc2ccccc2N1S(=O)(=O)c1ccc(S(=O)(=O)N(Cc2ccc(Cl)cc2)C2CCCC2)cc1 (stereo not shown) and print it.
Result: 100 to 1000 nM
